Recorded values, source patent US20070191333A1.

Tested on: E. faecalis MGH-2
method_summary: Antibacterial microtitration MIC, E. faecalis MGH-2
Assay type: cell-based
protocol_conditions: Enterococcus faecalis, MGH2, Gram Positive Bacteria; strain MGH-2; read-out: Minimum Inhibitory Concentrations E. faecalis MGH-2
// assign class 1 if MIC falls strictly below 2 µg/mL, else class 0 (ties count as class 0)

| compound | assigned_category |
| --- | --- |
| Cc1c(N2C[C@@H](CNCCC#N)[C@H](C)C2)c(F)cc2c(=O)n(N)c(=O)n(C3CC3)c12 (single isomer, unassigned) | class 1 |
| Cc1c(N2CC[C@@H]([C@H](C)NCCC#N)C2)c(F)cc2c(=O)n(N)c(=O)n(C3CC3)c12 (single isomer, unassigned) [drawing 411] | class 1 |
| Cc1c(N2C[C@H](CNCCC#N)[C@@H](F)C2)c(F)cc2c(=O)n(N)c(=O)n(C3CC3)c12 (racemic) [drawing 414] | class 0 |
| Cc1c(N2CC[C@H]([C@H](N)CC#N)C2)c(F)cc2c(=O)n(N)c(=O)n(C3CC3)c12 (racemic) [drawing 406] | class 0 |
| Cc1c(N2CC[C@@H]([C@@H](N)CC#N)C2)c(F)cc2c(=O)n(N)c(=O)n(C3CC3)c12 (single isomer, unassigned) [drawing 407] | class 1 |

###

Tested on: E. faecalis MGH-2
method_summary: Antibacterial microtitration MIC, E. faecalis MGH-2
Format: cell-based
protocol_conditions: Enterococcus faecalis, MGH2, Gram Positive Bacteria; strain MGH-2; read-out: Minimum Inhibitory Concentrations E. faecalis MGH-2
Entries annotated with measured MIC
measured_endpoint: MIC (µg/mL)

| molecule | reported |
| --- | --- |
| Cc1c(N2C[C@H](CNCCC#N)[C@@H](C)C2)c(F)cc2c(=O)n(N)c(=O)n(C3CC3)c12 (single isomer, unassigned) | 0.5 |
| COc1c(N2C[C@@H]3CCC(NCCC#N)[C@@H]3C2)c(F)cc2c(=O)n(N)c(=O)n(C3CC3)c12 (stereo partly shown) [drawing 415] | 4 |
| COc1c(N2CC[C@@H]([C@H](C)NCCC#N)C2)c(F)cc2c(=O)n(N)c(=O)n(C3CC3)c12 (single isomer, unassigned) [drawing 417] | 1 |
| Cc1c(N2CCC(C(N)CC#N)C2)c(F)cc2c(=O)n(N)c(=O)n(C3CC3)c12 (stereo not shown) [drawing 405] | 0.5 |

###

Tested on: E. faecalis MGH-2
method_summary: Antibacterial microtitration MIC, E. faecalis MGH-2
Type: cell-based
protocol_conditions: Enterococcus faecalis, MGH2, Gram Positive Bacteria; strain MGH-2; read-out: Minimum Inhibitory Concentrations E. faecalis MGH-2
Each entry below carries its reported MIC.

| compound | MIC |
| --- | --- |
| COc1c(N2CC[C@@H]([C@H](C)NCCC#N)C2)c(F)cc2c(=O)[nH]c(=O)n(C3CC3)c12 (single isomer, unassigned) [drawing 418] | 2 µg/mL |
| Cc1c(N2CC[C@@H](C(NCCC#N)c3ncco3)C2)c(F)cc2c(=O)n(N)c(=O)n(C3CC3)c12 (some centres unmarked) [drawing 416] | 32 µg/mL |
| Cc1c(N2CC[C@@H]([C@@H](N)CC#N)C2)c(F)cc2c(=O)[nH]c(=O)n(C3CC3)c12 (single isomer, unassigned) [drawing 408] | 0.5 µg/mL |
| COc1c(N2CC(CNCCC#N)C3(CC3)C2)c(F)cc2c(=O)n(N)c(=O)n(C3CC3)c12 (centres unmarked) [drawing 421] | 1 µg/mL |
| Cc1c(N2CCC(C(N)C(C)(C)C#N)C2)c(F)cc2c(=O)n(N)c(=O)n(C3CC3)c12 (centres unmarked) [drawing 419] | 32 µg/mL |

###

Test system: S. pneumo SV-1
method_summary: Antibacterial microtitration MIC, S. pneumo SV-1
Type: cell-based
protocol_conditions: Gram Positive Bacteria; strain SV-1; read-out: Minimum Inhibitory Concentrations S. pneumo SV-1
Method: Test A—Antibacterial Assays The compounds of the present invention were tested against an assortment of Gram-negative and Gram-positive organisms using standard microtitration techniques (Cohen et. al., Antimicrob., 1985; 28:766; Heifetz, et. al., Antimicrob., 1974; 6:124).
Quick reference: MIC of the listed items.

| compound | target_or_system | MIC |
| --- | --- | --- |
| Cc1c(N2C[C@H](CNCCC#N)[C@@H](F)C2)c(F)cc2c(=O)n(N)c(=O)n(C3CC3)c12 (racemic) [drawing 414] | S. pneumo SV-1 | 1 µg/mL |
| Cc1c(N2C[C@H](CNCCC#N)[C@@H](C)C2)c(F)cc2c(=O)n(N)c(=O)n(C3CC3)c12 (single isomer, unassigned) | S. pneumo SV-1 | 0.125 µg/mL |
| Cc1c(N2CC[C@@H](C(NCCC#N)c3ncco3)C2)c(F)cc2c(=O)n(N)c(=O)n(C3CC3)c12 (some centres unmarked) [drawing 416] | S. pneumo SV-1 | 8 µg/mL |
| COc1c(N2CC(CNCCC#N)C3(CC3)C2)c(F)cc2c(=O)n(N)c(=O)n(C3CC3)c12 (centres unmarked) [drawing 421] | S. pneumo SV-1 | 0.06 µg/mL |
| Cc1c(N2C[C@@H](CNCCC#N)[C@H](C)C2)c(F)cc2c(=O)n(N)c(=O)n(C3CC3)c12 (single isomer, unassigned) | S. pneumo SV-1 | 0.06 µg/mL |
| Cc1c(N2CC[C@@H]([C@@H](N)CC#N)C2)c(F)cc2c(=O)[nH]c(=O)n(C3CC3)c12 (single isomer, unassigned) [drawing 408] | S. pneumo SV-1 | 0.125 µg/mL |
| Cc1c(N2CC[C@@H]([C@@H](N)CC#N)C2)c(F)cc2c(=O)n(N)c(=O)n(C3CC3)c12 (single isomer, unassigned) [drawing 407] | S. pneumo SV-1 | 0.06 µg/mL |
| COc1c(N2C[C@@H]3CCC(NCCC#N)[C@@H]3C2)c(F)cc2c(=O)n(N)c(=O)n(C3CC3)c12 (some centres unmarked) [drawing 415] | S. pneumo SV-1 | 0.5 µg/mL |
| Cc1c(N2CC[C@@H]([C@H](C)NCCC#N)C2)c(F)cc2c(=O)n(N)c(=O)n(C3CC3)c12 (single isomer, unassigned) [drawing 411] | S. pneumo SV-1 | 0.015 µg/mL |
| Cc1c(N2CCC(C(N)CC#N)C2)c(F)cc2c(=O)n(N)c(=O)n(C3CC3)c12 (centres unmarked) [drawing 405] | S. pneumo SV-1 | 0.125 µg/mL |
| COc1c(N2CCC(C(N)CC#N)C2)c(F)cc2c(=O)n(N)c(=O)n(C3CC3)c12 (centres unmarked) [drawing 410] | S. pneumo SV-1 | 0.5 µg/mL |
| COc1c(N2CC[C@@H]([C@H](C)NCCC#N)C2)c(F)cc2c(=O)[nH]c(=O)n(C3CC3)c12 (single isomer, unassigned) [drawing 418] | S. pneumo SV-1 | 0.25 µg/mL |
| COc1c(N2CC[C@@H]([C@H](C)NCCC#N)C2)c(F)cc2c(=O)n(N)c(=O)n(C3CC3)c12 (single isomer, unassigned) [drawing 417] | S. pneumo SV-1 | 0.125 µg/mL |
| Cc1c(N2CC[C@H]([C@H](N)CC#N)C2)c(F)cc2c(=O)n(N)c(=O)n(C3CC3)c12 (racemic) [drawing 406] | S. pneumo SV-1 | 0.5 µg/mL |

###

Tested on: S pyogenes C203
method_summary: Antibacterial microtitration MIC, S pyogenes C203
Assay type: cell-based
protocol_conditions: Gram Positive Bacteria; strain C203; read-out: Minimum Inhibitory Concentrations S pyogenes C203
Method: Test A—Antibacterial Assays The compounds of the present invention were tested against an assortment of Gram-negative and Gram-positive organisms using standard microtitration techniques (Cohen et. al., Antimicrob., 1985; 28:766; Heifetz, et. al., Antimicrob., 1974; 6:124).
measured_endpoint: MIC

| compound | target_or_system | measured_endpoint | reported |
| --- | --- | --- | --- |
| COc1c(N2C[C@@H]3CCC(NCCC#N)[C@@H]3C2)c(F)cc2c(=O)n(N)c(=O)n(C3CC3)c12 (stereo partly shown) [drawing 415] | S pyogenes C203 | MIC | 1 µg/mL |
| Cc1c(N2CC[C@@H]([C@@H](N)CC#N)C2)c(F)cc2c(=O)n(N)c(=O)n(C3CC3)c12 (single isomer, unassigned) [drawing 407] | S pyogenes C203 | MIC | 0.03 µg/mL |
| Cc1c(N2C[C@H](CNCCC#N)[C@@H](F)C2)c(F)cc2c(=O)n(N)c(=O)n(C3CC3)c12 (racemic) [drawing 414] | S pyogenes C203 | MIC | 1 µg/mL |
| Cc1c(N2C[C@@H](CNCCC#N)[C@H](C)C2)c(F)cc2c(=O)n(N)c(=O)n(C3CC3)c12 (single isomer, unassigned) | S pyogenes C203 | MIC | 0.06 µg/mL |
| Cc1c(N2CC[C@@H]([C@H](C)NCCC#N)C2)c(F)cc2c(=O)n(N)c(=O)n(C3CC3)c12 (single isomer, unassigned) [drawing 411] | S pyogenes C203 | MIC | 0.03 µg/mL |
| Cc1c(N2CCC(C(N)CC#N)C2)c(F)cc2c(=O)n(N)c(=O)n(C3CC3)c12 (stereo not shown) [drawing 405] | S pyogenes C203 | MIC | 0.125 µg/mL |
| COc1c(N2CC(CNCCC#N)C3(CC3)C2)c(F)cc2c(=O)n(N)c(=O)n(C3CC3)c12 (stereo not shown) [drawing 421] | S pyogenes C203 | MIC | 0.06 µg/mL |
